Test: xn = mol fraction of the nth substance listed, in the solute-free solvent
Settings: 293.15 K; x2 = 0.9
Cut-off 4 on solubility (g/100 g solution), inclusive. At or above means label 1; below means label 0.

solubility (g/100 g solution) >= 4 for O=CC(O)C(O)C(O)CO (stereo not drawn) + CCO + ClCCl ? label 0

Say whether O=CC(O)C(O)C(O)CO (stereo not drawn) + CC(C)O + CCCCCC shows solubility (g/100 g solution) of 4 or more. label 0

Hello, I need to know if Cc1nc(C)c(C)nc1C + CO + CC#N has measured solubility (g/100 g solution) not below 4. Thanks! label 1

Exam item: decide whether the reported solubility (g/100 g solution) for Cc1nc(C)c(C)nc1C + CCCCO + CC#N is at least 4. label 1

Kindly determine if solubility (g/100 g solution) recorded for O=CC(O)C(O)C(O)CO (stereo not drawn) + CO + ClCCl is above or exactly 4. label 1

Say whether O=CC(O)C(O)C(O)CO (stereo not drawn) + CCO + CCCCCC shows solubility (g/100 g solution) of 4 or more. label 0

Test whether the molecule Cl.NC(C=O)C(O)C(O)C(O)CO (stereo not drawn) + O + CCO records solubility (g/100 g solution) of 4 or higher. label 1

# bool: solubility (g/100 g solution) of Cl.NC(C=O)C(O)C(O)C(O)CO (stereo not drawn) + O + CO >= 4 label 1

* * *

Assay: xn = mol fraction of the nth substance listed, in the solute-free solvent
Conditions: 288.15 K; x2 = 0.1
Would you mind telling me the reported solubility (g/100 g solution) of each entry?
# print the numeric value only

So, Cc1nc(C)c(C)nc1C + CCCCO + CC#N ? Its solubility (g/100 g solution) was 21.5

In plain terms, O=CC(O)C(O)C(O)CO (centres undefined) + CCO + ClCCl has a documented solubility (g/100 g solution) of 0.227

Measured solubility (g/100 g solution), O=CC(O)C(O)C(O)CO (centres undefined) + CO + ClCCl : 0.17

Consider Cc1nc(C)c(C)nc1C + CO + CC#N . Its measured solubility (g/100 g solution) is 21.4

* * *

Experiment: xn = mol fraction of the nth substance listed, in the solute-free solvent
Conditions: 303.15 K; x2 = 0.3
TEST READOUT: solubility (g/100 g solution)
Kindly provide the number alone.

The measured solubility (g/100 g solution) associated with O=CC(O)C(O)C(O)CO (stereo unspecified) + CO + ClCCl reads 2.17

For O=CC(O)C(O)C(O)CO (stereo unspecified) + CC(C)O + CCCCCC the molecule record lists solubility (g/100 g solution) as 0.233

response.value for O=CC(O)C(O)C(O)CO (stereo unspecified) + CCO + ClCCl (field: solubility (g/100 g solution)) = 1.43

The measured solubility (g/100 g solution) associated with Cc1nc(C)c(C)nc1C + CO + CC#N reads 46

Documented solubility (g/100 g solution) of O=CC(O)C(O)C(O)CO (stereo unspecified) + CCO + CCCCCC : 0.186

Lab note: Cc1nc(C)c(C)nc1C + CCCCO + CC#N gave solubility (g/100 g solution) of 42.8
